Each recorded value in this set is attributed to patent US20240270821A1.

Biological target: hGLP-1R (Homo sapiens)
Sequence (P43220 24-463): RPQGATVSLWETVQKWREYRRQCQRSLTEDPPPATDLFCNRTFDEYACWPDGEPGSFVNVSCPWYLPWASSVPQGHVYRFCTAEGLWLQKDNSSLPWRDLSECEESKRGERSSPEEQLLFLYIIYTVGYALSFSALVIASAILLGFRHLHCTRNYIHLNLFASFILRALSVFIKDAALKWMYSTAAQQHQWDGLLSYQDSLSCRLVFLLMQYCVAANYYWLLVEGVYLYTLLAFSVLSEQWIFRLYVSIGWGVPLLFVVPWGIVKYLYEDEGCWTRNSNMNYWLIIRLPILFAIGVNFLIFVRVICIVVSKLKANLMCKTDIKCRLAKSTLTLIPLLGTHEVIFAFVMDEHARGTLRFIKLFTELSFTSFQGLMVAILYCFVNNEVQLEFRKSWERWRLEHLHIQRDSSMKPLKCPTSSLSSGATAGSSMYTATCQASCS
Assay: Functional cAMP activity in the presence of 1% HSA
Type: cell-based
Settings: read-out: cAMP Rel EC50, hGLP-1R
Starred links: 1 amine or outer side, 2 acyl side, 3 side chain; linkers in the order of their positions; H or OH if unused. Non-standard residues stand in square brackets, D forms with d. Groups on a side chain read outwards from the residue. No end group written: not given here. *: point of attachment. C20 diacid = O=C(O)CCCCCCCCCCCCCCCCCCC(=O)*; C18 diacid = O=C(O)CCCCCCCCCCCCCCCCC(=O)*; αMePhe(2-F) = C[C@](N)(Cc1ccccc1F)C(=O)O; γGlu = O=C(O)[C@H](CCC(=O)[*:2])N[*:1]; αMe4Pal = C[C@](N)(Cc1ccncc1)C(=O)O; αMeY = C[C@](N)(Cc1ccc(O)cc1)C(=O)O; αMeF = C[C@](N)(Cc1ccccc1)C(=O)O; 4Pal = N[C@@H](Cc1ccncc1)C(=O)O; αMeL = CC(C)C[C@](C)(N)C(=O)O; αMeS = C[C@](N)(CO)C(=O)O; Orn = NCCC[C@H](N)C(=O)O; AEEA = NCCOCCOCC(=O)O; Aib = CC(C)(N)C(=O)O
readoutKind: pEC50
Give bare numbers, as −log10 of the molar value.

H-Y[Aib]QGTFTSD[4Pal]SR[αMeL]LDKK([AEEA-γGlu-C18 diacid])AQ[Aib]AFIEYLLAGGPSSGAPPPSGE-NH2 [Example 113] ... 6.33
H-Y[Aib]QGTFTSDFSK[αMeL]LDKK([AEEA-γGlu-C20 diacid])AQ[Aib]AFIEYLLEGGPSSGEPPPGEG[AEEA]-NH2 [Example 54] ... 5.89
H-Y[Aib]QGT[αMePhe(2-F)]TSD[4Pal]SILLDKK([γGlu-γGlu-C18 diacid])AQ[Aib]AFIEYLEEGGPSSGAPPPEGTE-NH2 [Example 659] ... 7.09

For each listed entry, give its pEC50.
1. H-Y[Aib]QGTFTSDYSK[αMeL]LDKK([AEEA-γGlu-C20 diacid])AQ[Aib]AFVQWLLEGGPSSGEPPPSEG-NH2 [Example 343]
2. H-Y[Aib]QGTFTSDFS[Orn][αMeL]LDKK([AEEA-γGlu-C20 diacid])AQ[Aib]AFIEYLLAGGPSSGAPPPSEG-NH2 [Example 60]
3. H-Y[Aib]QGT[αMePhe(2-F)]TSD[4Pal][αMeS]I[αMeL]LD[Orn]K([γGlu-γGlu-C18 diacid])AQ[Aib][Orn]FI[dE][αMeY]LSEGGPSSGEPPPSGQEE-NH2 [Example 570]
4. H-Y[Aib]QGT[αMePhe(2-F)]TSD[4Pal]SI[αMeL]LD[Orn]K([γGlu-γGlu-C18 diacid])AQ[αMe4Pal][Orn]FI[dE][αMeY]LIEGGPSSGEPPPESE-NH2 [Example 685]
5. Y[Aib]QGT[αMeF]TSD[4Pal][αMeS]I[αMeL]LD[Orn]K([AEEA-γGlu-C18 diacid])AQ[αMe4Pal]EFI[dE][αMeY]LIEGGPSSGEPPPSGE-NH2 [Example 1165]
6. Y[Aib]QGTFTSD[4Pal]SQ[αMeL]LD[Orn]K([AEEA-γGlu-C18 diacid])AQ[αMe4Pal]AFIE[αMeY]LLEGGPSSGAPPPSGS-NH2 [Example 932]
7. H-Y[Aib]QGTFTSD[4Pal]SQ[αMeL]LDKK([γGlu-γGlu-C18 diacid])AQ[αMe4Pal]AFIE[αMe4Pal]LIEGGPSSGAPPPSGS-NH2 [Example 951]
8. H-Y[Aib]QGTFTSD[4Pal]S[Orn][αMeL]LDKK([AEEA-γGlu-C18 diacid])AQ[αMe4Pal]AFIEYLIE[Aib]GESSGAPPPSGE-NH2 [Example 222]

Output:
1: 6.75; 2: 6.39; 3: 7.02; 4: 7.73; 5: 7.06; 6: 6.60; 7: 6.42; 8: 6.12

For each listed entry, give its pEC50.
1. H-Y[Aib]QGT[αMePhe(2-F)]TSD[4Pal]SILLD[Orn]K([γGlu-γGlu-C18 diacid])AQ[Aib][Orn]FIEYLQEGGPSSGAPPPSGTEE-NH2 [Example 582]
2. H-Y[Aib]QGTFTSD[4Pal]SR[αMeL]LDKK([AEEA-γGlu-C18 diacid])AQ[αMe4Pal]AFIEYLIE[Aib]GESSGAPPPSGS-NH2 [Example 224]

Output:
1. 7.45
2. 6.48

For each listed entry, give its pEC50.
1. Y[Aib]QGT[αMePhe(2-F)]TSD[4Pal][αMeS]I[αMeL]LD[Orn]K([AEEA-γGlu-C18 diacid])AQ[αMe4Pal]EFI[dE][αMeY]LIEGGPSSGEPPPESE-NH2 [Example 1147]
2. Y[Aib]QGTFTSDFS[Orn][αMeL]LDKK([AEEA-γGlu-γGlu-C18 diacid])AQ[Aib]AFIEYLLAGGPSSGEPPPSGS-NH2 [Example 153]
3. Y[Aib]QGTFTSDFSK[αMeL]LDKK([AEEA-γGlu-C18 diacid])AQ[Aib]QFIEYLLAGGPSSGEPPPSEG-NH2 [Example 26]
4. H-Y[Aib]QGT[αMePhe(2-F)]TSD[4Pal][αMeS]I[αMeL]LD[Orn]K([AEEA-γGlu-C18 diacid])AQ[αMe4Pal]EFI[dE][αMeY]LVEGGPSSGAPPPSGE-NH2 [Example 749]
5. H-Y[Aib]QGTFTSDFS[Orn][αMeL]LDKK([AEEA-γGlu-C18 diacid])AQ[Aib]AFIEYLLE[dA]GPSS[Aib]APPPSGT-NH2 [Example 214]
6. Y[Aib]QGTFTSD[4Pal]SQ[αMeL]LDKK([dE-γGlu-dE-C18 diacid])AQ[αMe4Pal]AFIEYLIE[Aib]GPSSGAPPPSGS-NH2 [Example 923]
7. H-Y[Aib]QGTFTSD[4Pal]SQ[αMeL]LD[Orn]K([AEEA-γGlu-C18 diacid])AQ[αMe4Pal]QFIE[αMeY]LIA[Aib]GPSSGEPPPSGSEE-NH2 [Example 1100]
8. H-Y[Aib]QGTFTSDFS[Orn][αMeL]LDKK([AEEA-γGlu-C18 diacid])AQ[Aib]AFIEYLLE[dA]GPSSGAPPPSG[4Pal]-NH2 [Example 211]

Output:
1. 7.34
2. 6.31
3. 6.21
4. 7.47
5. 6.73
6. 6.06
7. 7.11
8. 6.63

Lookup result for H-Y[Aib]QGT[αMePhe(2-F)]TSD[4Pal][αMeS]I[αMeL]LD[Orn]K([AEEA-AEEA-γGlu-C18 diacid])AQ[Aib][Orn]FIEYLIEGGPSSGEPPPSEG-NH2 [Example 491] ; measured pEC50: 8.02
